biological target: SARS-CoV-2 Main Protease (SARS-CoV-2); settings: 50.0 µM
molecules and their reported inhibition
Readout name: inhibition (%)

[[record]]
molecule = "CN(CC(=O)Nc1ccccc1Br)C(=O)CCl"
readout_name = "inhibition"
readout_number = 52.3

[[record]]
molecule = "CCSCC1CCN(c2ccc(S(N)(=O)=O)cc2)CC1"
readout_name = "inhibition"
readout_number = 40.2

[[record]]
molecule = "O=C1Nc2c(Br)cccc2C1=O"
readout_name = "inhibition"
readout_number = 67.4

[[record]]
molecule = "O=C(NCc1coc2ccccc12)C1CCc2nnc(-c3ccc(O)cc3)n2C1 (stereo unspecified)"
readout_name = "inhibition"
readout_number = 55.3

[[record]]
molecule = "Cc1noc(C)c1NC(=O)Cc1cccc(Cl)c1Cl"
readout_name = "inhibition"
readout_number = 0

[[record]]
molecule = "CCCC(C(=O)Nc1cnccc1C)c1cccc(Cl)c1 (stereo unspecified)"
readout_name = "inhibition"
readout_number = 78.3

[[record]]
molecule = "N#Cc1cncc(NC(=O)Cc2c[nH]c3ncccc23)c1"
readout_name = "inhibition"
readout_number = 0

[[record]]
molecule = "O=C(Cc1cc(Cl)cc(Cl)c1)Nc1nncs1"
readout_name = "inhibition"
readout_number = 0

[[record]]
molecule = "C[C@H](NC(=O)[C@@H](C)c1ccc(F)c(F)c1)c1cccc(F)c1 (stereo in doubt)"
readout_name = "inhibition"
readout_number = 0

[[record]]
molecule = "COc1cc2c(c3ccccc13)OC(C)(C)CC2Oc1cc2c(cc1C)C(=O)c1ccccc1C2=O (stereo unspecified)"
readout_name = "inhibition"
readout_number = 4

[[record]]
molecule = "NS(=O)(=O)c1ccc(N2CCSCC2)cc1"
readout_name = "inhibition"
readout_number = 48.2

[[record]]
molecule = "Cc1ccncc1NC(=O)Nc1cncc(C#N)c1"
readout_name = "inhibition"
readout_number = 15.5

[[record]]
molecule = "COc1ccc(-c2cc(COc3cc(Cl)cc(CC(=O)Nc4cnccc4C)c3)on2)cc1"
readout_name = "inhibition"
readout_number = 67.3

[[record]]
molecule = "O=C1N(Cc2cccc(Cl)c2)CCN1c1nccc2n[nH]cc12"
readout_name = "inhibition"
readout_number = 88.8

[[record]]
molecule = "N#Cc1cccc(NC(=O)Nc2c[nH]c3ncccc23)c1"
readout_name = "inhibition"
readout_number = 19.9

[[record]]
molecule = "O=C1Nc2cc(N3CCCC3)ccc2C1=O"
readout_name = "inhibition"
readout_number = 0


====

target: UniProtKB P0DTD1; details: 50.0 µM
Listed compounds paired with reported inhibition
Readout name: inhibition (%)

[[record]]
compound = "C=CC(=O)N(c1ccc(C(F)(F)F)cc1)C(C(=O)NCCc1cccc(F)c1)c1cncc(Cl)c1 (centres undefined)"
readout_number = 82.1

[[record]]
compound = "C=CC(=O)N(c1ccc(C(C)(C)C)cc1)C(C(=O)NCCCSC)c1cccnc1 (centres undefined)"
readout_number = 100

[[record]]
compound = "COc1ccc(S(=O)(=O)N2CCN(C(=O)c3cc(=O)[nH]c4cc(F)ccc34)CC2)cc1"
readout_number = 0

[[record]]
compound = "COc1ccccc1OCC(C)NC(=O)c1cc(=O)[nH]c2ccc(F)cc12 (centres undefined)"
readout_number = 40.1

[[record]]
compound = "Cc1ccncc1NC(=O)Cc1cc(Cl)cc(OCCN2CCOCC2C)c1 (centres undefined)"
readout_number = 23.9

[[record]]
compound = "N#CC(C(=O)Nc1ccccc1)C(=O)c1cccc(Cl)c1 (centres undefined)"
readout_number = 0

[[record]]
compound = "CN(CCC(N)=O)C(=O)C(=O)N1Cc2ccccc2C(c2ccccc2)C1 (centres undefined)"
readout_number = 0

[[record]]
compound = "O=C(Cc1cccc(Cl)c1)Nc1cncc2nc[nH]c12"
readout_number = 79.5

[[record]]
compound = "CC(C(=O)Nc1cccc(NC2CCCC2)c1)c1cnccn1 (centres undefined)"
readout_number = -2.15

